Tested on: A549-TUBA1B-RELA
Assay: phenotypically active (imaging signature differs from DMSO and reproducible) at any of 0.3-9 uM (binary (1 = active, 0 = inactive)); higher = active
Conditions: treatment time: 24 h
Collected phenotypically active values appear next to each entry.

Compound	Subject of test	phenotypically active
Cc1ccc([N+](=O)[O-])cc1S(=O)(=O)N(C)C	A549-TUBA1B-RELA	0
O=C(CCCCCCC(=O)Nc1ccccc1)NO	A549-TUBA1B-RELA	1
O=S(=O)(c1cccc2cnccc12)N1CCCNCC1	A549-TUBA1B-RELA	1
Cc1ccc(-c2c(-c3nn(C)c4ncnc(N5CC[C@H](N6CCCCC6)C5)c34)cnn2C)cc1	A549-TUBA1B-RELA	0
COc1ccc(OC)c(C(O)CNC(=O)CN)c1 (stereo unspecified)	A549-TUBA1B-RELA	0
N#CC[C@@H](C1CCCC1)n1cc(-c2ncnc3[nH]ccc23)cn1 [ruxolitinib-(S)]	A549-TUBA1B-RELA	1

* * *

Tested on: WPMY1-CANX-COX4
Assay: phenotypically active (imaging signature differs from DMSO and reproducible) at any of 0.3-9 uM (binary (1 = active, 0 = inactive)); higher = active
Settings: treatment time: 24 h
Counter-ions that a name gives are not always drawn.
Outcome codes: y (active), n (inactive)

Compound	Answer label
O=c1cc(N2CCOCC2)oc2c(-c3ccccc3)cccc12	y
CC[C@H](CO)Nc1nc(Nc2cccc(-c3ccccn3)c2)c2ncn(C(C)C)c2n1 [(R)-DRF053 dihydrochloride]	y
O=C(NCC1CCCCN1)c1cc(OCC(F)(F)F)ccc1OCC(F)(F)F (stereo not given) [flecainide]	n
N#Cc1ccc(C(c2ccc(C#N)cc2)n2cncn2)cc1	n
COc1ccc(Cl)cc1NC(=O)Nc1cc(C)nc2ccccc12	n

* * *

System: HepG2-CANX-COX4
Test: phenotypically active (imaging signature differs from DMSO and reproducible) at any of 0.3-9 uM (binary (1 = active, 0 = inactive)); higher = active
Details: treatment time: 24 h
Measured phenotypically active of individual entries
Property label: phenotypically active

Substance smiles	Result
COc1ccc2c(c1)c(CC(=O)O)c(C)n2C(=O)c1ccc(Cl)cc1	0 (inactive)
O=C(O)C[C@H](O)C[C@H](O)/C=C/c1c(C2CC2)nc2ccccc2c1-c1ccc(F)cc1	1 (active)
NC1(C(=O)N[C@@H](CCO)c2ccc(Cl)cc2)CCN(c2ncnc3[nH]ccc23)CC1	1 (active)
CC(=O)O[C@@H]1C[C@H]2C(C)(C)C(=O)C=C[C@]2(C)[C@H]2CC[C@@]3(C)[C@H](c4ccoc4)OC(=O)[C@H]4O[C@]43[C@@]21C	1 (active)
O=C(O)[C@H]1CCCC[C@H]1C(=O)N1CCc2ccccc2[C@H]1CN1C(=O)c2ccccc2C1=O	0 (inactive)
COc1cc(N2CCC(N)CC2)ccc1Nc1ncc(Cl)c(-c2c[nH]c3ccccc23)n1	1 (active)
N=C(N)NC(=O)Cc1c(Cl)cccc1Cl	0 (inactive)
Cc1cc(C(=O)NNCc2ccccc2)no1	0 (inactive)

* * *

Tested on: HepG2-TP53BP1-CLTA
Assay: lowest phenotypically active concentration; higher = less potent
Conditions: treatment time: 24 h
Structures can show the parent of a compound that is named as a salt.
# key: entry, value: lowest phenotypically active concentration
Property label: lowest phenotypically active concentration (µM)

Compound	Subject of test	Readout qualifier	Numeric readout
CCNC(=O)c1noc(-c2cc(C(C)C)c(O)cc2O)c1-c1ccc(CN2CCOCC2)cc1	HepG2-TP53BP1-CLTA	≤	0.3
O=C1NCCN1CCN1CCC(c2cn(-c3ccc(F)cc3)c3ccc(Cl)cc23)CC1	HepG2-TP53BP1-CLTA	=	3
CCCc1cc2c(N3CCN(C4=NCC(C)(C)S4)CC3)ncnc2s1 [MI 2 dihydrochloride]	HepG2-TP53BP1-CLTA	=	9
CN1CCN(c2ccc(-c3cccc(CN4CCOCC4)c3)cc2NC(=O)c2c[nH]c(=O)cc2C(F)(F)F)CC1	HepG2-TP53BP1-CLTA	=	9
CCOC(=O)c1c2c3c(cccc3[nH]c1=O)C(=O)c1ccccc1-2	HepG2-TP53BP1-CLTA	≤	0.3

* * *

Test system: WPMY1-GM130-SQSTM1
Assay: phenotypically active (imaging signature differs from DMSO and reproducible) at any of 0.3-9 uM (binary (1 = active, 0 = inactive)); higher = active
Settings: treatment time: 24 h
Labels: active, inactive

Compound	Subject of test	Answer label
NC(=O)c1sc2c([N+](=O)[O-])cc(C(F)(F)F)cc2[n+]1[O-]	WPMY1-GM130-SQSTM1	active
C#CCN[C@@H]1CCc2ccccc21	WPMY1-GM130-SQSTM1	active
O=S(=O)(c1cccc2cnccc12)N1CCCNCC1	WPMY1-GM130-SQSTM1	active
CNCCC(Oc1ccc(C(F)(F)F)cc1)c1ccccc1 (centres undefined)	WPMY1-GM130-SQSTM1	active
CC[C@H](C)C(=O)O[C@H]1C[C@H](O)C=C2C=C[C@H](C)[C@H](CC[C@@H](O)C[C@@H](O)CC(=O)O)[C@H]21	WPMY1-GM130-SQSTM1	inactive
C[C@H]1Oc2cc(cnc2N)-c2c(nn(C)c2C#N)CN(C)C(=O)c2ccc(F)cc21	WPMY1-GM130-SQSTM1	inactive
OCCOCCN1CCN(C2=Nc3ccccc3Sc3ccccc32)CC1 [Quetiapine hemifumarate]	WPMY1-GM130-SQSTM1	inactive
c1ccc2c(c1)Cc1c(Nc3ccc4c(c3)OCCO4)n[nH]c1-2	WPMY1-GM130-SQSTM1	active
Cc1cc(F)c(Nc2ncnc3cc(OCc4ccccc4)ccc23)cc1O	WPMY1-GM130-SQSTM1	inactive

* * *

Test system: HepG2-ACTB-RAB5A
Experiment: phenotypically active (imaging signature differs from DMSO and reproducible) at any of 0.3-9 uM (binary (1 = active, 0 = inactive)); higher = active
Conditions: treatment time: 24 h
Each entry below carries its reported phenotypically active.
Property label: phenotypically active

Compound	Property label	Numeric readout
CCN(CC)CCCC(C)Nc1ccnc2cc(Cl)ccc12 (stereo not given)	phenotypically active	1
O=C1Nc2ccc(F)cc2C1=C1Nc2ccccc2C1=NO	phenotypically active	1
FC(F)(F)c1ccc(/C=C/c2nc(COc3ccc(CCCCn4ccnn4)cc3)co2)cc1	phenotypically active	1
CCC1(C)OC(=O)N(C)C1=O (stereo not given)	phenotypically active	0
CN(C)CCOC(c1ccccc1)c1ccccc1 [diphenhydramine]	phenotypically active	0
Cc1ccc(NC2=CC(=O)c3sc(C)nc3C2=O)cc1	phenotypically active	1
O=c1[nH]cc(F)c(=O)[nH]1	phenotypically active	1
NS(=O)(=O)c1cc2c(cc1Cl)N=CNS2(=O)=O [chlorothiazide]	phenotypically active	0
CCCCc1oc2ccccc2c1C(=O)c1cc(I)c(OCCN(CC)CC)c(I)c1	phenotypically active	1
Nc1cc(-c2ccncc2)c[nH]c1=O	phenotypically active	0
CCOC(=O)CCNc1cc(N2CCc3ccccc3CC2)nc(-c2ccccn2)n1	phenotypically active	1
NCCCC[C@H](N[C@@H](CCc1ccccc1)C(=O)O)C(=O)N1CCC[C@H]1C(=O)O	phenotypically active	0
O=C(O)CCNC(=O)c1ccc(/N=N/c2ccc(O)c(C(=O)O)c2)cc1 [balsalazide]	phenotypically active	0
O=C(O)[C@H]1CCCC[C@H]1C(=O)N1CCc2ccccc2[C@H]1CN1C(=O)c2ccccc2C1=O	phenotypically active	1
Nc1ncnc(Nc2ccc(OCc3ccccc3)c(Cl)c2)c1/C=N/OCCN1CCOCC1	phenotypically active	1
NC(=O)OCC(COC(N)=O)c1ccccc1 [felbamate]	phenotypically active	0
COc1cc(C)c(/C=C/C(C)=C/C=C/C(C)=C/C(=O)O)c(C)c1C	phenotypically active	0
O=C(NCC1CCCCN1)c1cc(OCC(F)(F)F)ccc1OCC(F)(F)F (stereo not given) [flecainide]	phenotypically active	0
CC(=O)c1c(C)c2cnc(Nc3ccc(N4CCNCC4)cn3)nc2n(C2CCCC2)c1=O	phenotypically active	1
Cc1cccc(Nc2ccccc2C(=O)O)c1C	phenotypically active	0

* * *

System: WPMY1-TUBA1B-RELA
Assay: phenotypically active (imaging signature differs from DMSO and reproducible) at any of 0.3-9 uM (binary (1 = active, 0 = inactive)); higher = active
Settings: treatment time: 24 h
Classes used: yes = active, no = inactive

Compound	Answer label
CC(C)N(CCCNC(=O)Nc1ccc(C(C)(C)C)cc1)C[C@H]1O[C@@H](n2cc(Br)c3c(N)ncnc32)[C@H](O)[C@@H]1O	yes
COc1cc2ncnc(Nc3ccc(Cl)cc3F)c2cc1OC	no
O=C1NCCCC1C(=O)NCCc1c[nH]c2ccc(O)cc12 (stereo not given)	no
CCc1cccc2c3c([nH]c12)C(CC)(CC(=O)O)OCC3 (stereo not given)	no
FC(F)(F)c1ccc(/C=C/c2nc(COc3ccc(CCCCn4ccnn4)cc3)co2)cc1	no
COc1cc2nc(N3CCN(C(=O)C4COc5ccccc5O4)CC3)nc(N)c2cc1OC (stereo not given)	no
NC(=O)c1ccc(N(C(N)=O)c2c(F)cccc2F)nc1-c1ccc(F)cc1F	no
C[C@](N)(Cc1ccc(O)c(O)c1)C(=O)O	no
CC(CCc1ccccc1)NCC(O)c1ccc(O)c(C(N)=O)c1 (stereo not given)	no
Cc1cccc(-c2nn(C(=S)Nc3ccccc3)cc2-c2ccnc3ccccc23)n1	yes
